assay: Toxicity liver stage against HepG2, at 10uM; type: cell-based; parameters: test concentration 10 uM, cell line HepG2-A16-CD81EGFP; conditions: human, HepG2-A16-CD81EGFP cells; read-out: INHIBITION
Quick list: cytotoxicity at 10 µM per entry.
MEASURED ENDPOINT: cytotoxicity at 10 µM (%)

MOLECULE | MEASURED ENDPOINT | ASSAY VALUE
COc1cc(CO)ccc1OCc1nc(C(C)C)no1 | cytotoxicity at 10 µM | 6.3
CNC(=O)c1ccc(C(=O)N2CCCCC2Cn2cc(C)cn2)cn1 (stereo unspecified) | cytotoxicity at 10 µM | -3.54
Cc1ccc(CN2CCc3nc(C(C)C)nc(O)c3CC2)s1 | cytotoxicity at 10 µM | 0.913
COc1cc(N2C[C@H]3CCC[C@@H](CN4CCCC4)[C@H]3C2)ncn1 | cytotoxicity at 10 µM | -79
O=C(CCC(F)(F)F)N1CCCC(CO)(CC2CC2)C1 (stereo unspecified) | cytotoxicity at 10 µM | 2.75
CS(=O)(=O)N1CCOCC2(CCN(Cc3ccc[nH]3)CC2)C1 | cytotoxicity at 10 µM | -7.02
C=C(C)COc1ccc(C(=O)NCC2CC(CC)=NO2)cc1 (stereo unspecified) | cytotoxicity at 10 µM | -48.2
CCS(=O)(=O)N1CCN(C(=O)C(C)C)CC2(CC(=O)N(C)C2)C1 (stereo unspecified) | cytotoxicity at 10 µM | 8.4
Cc1nn(C)cc1CC(C#N)C(=O)Nc1cccc(O)c1 (stereo unspecified) | cytotoxicity at 10 µM | 2.8
O=C(Cc1ccc2c(c1)CCC2)NCCNc1ncccn1 | cytotoxicity at 10 µM | -3.93
Cn1nnc2c1C(COCc1ccccn1)CN(C(=O)c1cccs1)C2 (stereo unspecified) | cytotoxicity at 10 µM | -11.2

###

assay: Toxicity liver stage against HepG2, at 10uM; type: cell-based; parameters: test concentration 10 uM, cell line HepG2-A16-CD81EGFP; conditions: human, HepG2-A16-CD81EGFP cells; read-out: INHIBITION

COMPOUND | UNIT OF MEASURE | cytotoxicity at 10 µM
CN(C)C(=O)CCS(=O)(=O)Cc1coc(-c2ccc(F)cc2)n1 | % | -2.26
COCCC(=O)N1CCC(c2ncncc2-c2ccnc(N)c2)C1 (centres undefined) | % | -2.68
Cc1cc(CN(C)CC2(O)CCCN(CCC3CCCCC3)C2=O)no1 (centres undefined) | % | -14.4
Cc1nc[nH]c1C(=O)N1CC[C@@H](NC(=O)c2ccccn2)[C@H](O)C1 | % | 4.61
Cc1cc(C)nc(Nc2nccnc2C2CCCN(CCO)C2)n1 (centres undefined) | % | -0.0399
NCc1csc(CCc2ccccc2)n1 | % | -0.138
Cc1nnc([C@H]2C[C@H]3OCC[C@H]3N(S(=O)(=O)N(C)C)C2)o1 | % | -8.44
C[C@@H]1CN(C(=O)CCCN2CCOCC2)C[C@@]1(O)C1CC1 | % | 4.39
CCCN1CC[C@@H]2[C@@H](CO[C@H]2CNC(=O)c2nccn2C)C1 | % | -111
CC(=O)Nc1nc(C(=O)NCc2ccc(OC(C)C)nc2)cs1 | % | -2.45
Cn1cnc(S(=O)(=O)NCCC(O)c2ccc3c(c2)OCO3)c1 (centres undefined) | % | -8.71
COCC(=O)N1CCC(c2cc3nc(C)cc(C(F)(F)F)n3n2)CC1 | % | 4.49
CC1CN(C(=O)c2ccn(-c3cccc(Cl)c3)n2)CCO1 (centres undefined) | % | -5.25
CN1CSC[C@H]1C(=O)N1CCN(Cc2cccc(Cl)c2)CC1 | % | -4.28
O=C(CCN1C(=O)CCC1=O)Nc1ccc(OCC(F)(F)F)nc1 | % | -13.4
COc1ncccc1NC(=O)C1CCS(=O)(=O)C1 (centres undefined) | % | -4.48
CCNC(=O)N1CCC(NC(=O)NCCc2cc(F)cc(F)c2)C1 (centres undefined) | % | -43.4
COC1CCCOC12CCN(C(=O)NCCc1cccs1)CC2 (centres undefined) | % | 1.03
O=C(c1ccoc1)N1CCC2(C1)CN(c1ncccn1)C2 | % | -5.55
O=C(CSC1=NS(=O)(=O)c2cc(F)ccc2N1)c1ccc(Cl)cc1 | % | 10.3
Cc1cc(C2CCCN2CCCc2nc3ccccc3o2)on1 (centres undefined) | % | -5.58
Cc1noc(C)c1C(=O)NCCSCc1cccs1 | % | -4.89
CSc1nsc(NC(=O)N(C)Cc2ccc3c(c2)OCO3)n1 | % | -10.4
FC(F)(F)c1cc(N2CCc3ncnc(NC4CC4)c3CC2)ncn1 | % | 1.79
